System: SK-MEL-5
Test Description: NCI tumour cell line growth inhibition, 48 h
The source made the active and inactive calls. No stated cut-off is given here; in the data, active = GI50 up to about 1.1 µM and inactive = higher.
We begin with a simple list: items and their reported GI50.
Recorded Metric: GI50

>>> readout_value("CC(=O)O[C@H]1CCc2c(cc(N)c3c2C(=O)C[C@]2(C)C([C@H](C)CCCC(C)C)CCC32C)C1(C)C (some centres undefined)")
"> 100 µM (inactive)"
>>> readout_value("O=C(CSCC(=O)N/N=C/c1ccc(F)cc1)N/N=C/c1ccc(F)cc1")
"> 100 µM (inactive)"
>>> readout_value("CC(C)CC1N=C(OCc2ccccc2)OC1=O (centres undefined)")
"45.7 µM (inactive)"
>>> readout_value("COc1ccc2c(c1)Cc1cc(/N=[N+](\\[O-])c3ccc4c(c3)Cc3cc(OC)ccc3-4)ccc1-2")
"18.1 µM (inactive)"
>>> readout_value("CC(=O)Oc1ccccc1[C@H]1CC(=O)C[C@H](c2ccccc2OC(C)=O)C12C(=O)c1ccccc1C2=O")
"22.4 µM (inactive)"
>>> readout_value("NN/C(=N\\S(=O)(=O)c1cc(Cl)c(Oc2ccc([N+](=O)[O-])cc2Cl)c(Cl)c1)Nc1ccc(Cl)cc1")
"16 µM (inactive)"
>>> readout_value("C[N+](C)(C)c1ncnc2c1ncn2C1CCCO1 (centres undefined)")
"> 100 µM (inactive)"
>>> readout_value("C#CC1(O)CCC2[C@@H]3CCc4cc(Oc5nc(F)nc(-c6c(C)c(C(=O)OCC)n7ccccc67)n5)ccc4C3CC[C@@]21C (some centres undefined)")
"> 100 µM (inactive)"
>>> readout_value("CCOC(=O)c1c(N)sc2c1C(C)(C(=O)OCC)CC2 (centres undefined)")
"> 100 µM (inactive)"

Taken from ChEMBL document CHEMBL1201862.
